experiment: qHTS assay to identify small molecule antagonists of the thyroid receptor (TR) signaling pathway - cell viability counter screen (AID 743064); settings: GH3.TRE-Luc viability, CellTiter-Fluor, 24 h; series mostly up to 70.3 µM; note: nearly all actives have a fitted effect of over 50% in size
Inconclusive results are not listed. Activity calls are given as the source filed them. Calls come from the whole dose curve; as a rule, active = well fitted cell-killing curve with a large enough effect in the repeat runs; inconclusive = weak or mixed curves, or effect the other way; inactive = no such curve, though single readings can be large or run the other way.
Choose one outcome from this list and give only that: active, inactive

// outcome(item) with item = CC(Oc1ccccc1)C(=O)N[C@@H]1C(=O)N2[C@@H]1SC(C)(C)[C@@H]2C(=O)O (stereo not given in full)
inactive

What classification did COc1cc(S(C)=O)ccc1-c1nc2ncccc2[nH]1 (stereo not given) end up with in this test?
inactive

Which outcome did this test record for the compound CCCCCCCCCCCC(=O)OC[C@@H](O)C1OC[C@H](O)[C@H]1O (stereo not given in full) ?
inactive

Hi team, can someone confirm the assay call for "CCCCCCCCCCCCCCCCCC(=O)[O][Al]" ?
inactive

Tell me the assay call for "CC1=C(/C=C/C(C)=C/C=C/C(C)=C/C=C/C=C(C)/C=C/C=C(C)/C=C/C2=C(C)C(=O)CCC2(C)C)C(C)(C)CCC1=O" please.
inactive

Assay result, entry "C[C@H](CSC(=O)c1ccccc1)C(=O)N1C[C@@H](Sc2ccccc2)C[C@H]1C(=O)O" — outcome?
inactive

Which outcome did this test record for the compound "CO[C@H]1C[C@H](O[C@H]2[C@H](C)O[C@@H](O[C@@H]3/C(C)=C/C[C@@H]4C[C@@H](C[C@]5(C=C[C@H](C)[C@@H](C6CCCCC6)O5)O4)OC(=O)[C@@H]4C=C(C)[C@@H](O)[C@H]5OC/C(=C\C=C\[C@@H]3C)[C@]54O)C[C@@H]2OC)O[C@@H](C)[C@@H]1O" ?
active

Hi, sorry to bother you, what did the test record for "CC(=O)O[C@H]1C[C@@]2(C)[C@@H](C[C@@H](O)[C@H]3[C@@]4(C)CC[C@@H](O)[C@@H](C)[C@@H]4CC[C@@]32C)/C1=C(\CCC=C(C)C)C(=O)O" ?
inactive

Would you mind telling me which call this test gave "CC(=O)OCC(=O)[C@@]12OC3(CCCC3)O[C@@H]1C[C@H]1[C@@H]3CCC4=CC(=O)C=C[C@]4(C)[C@@]3(F)[C@@H](O)C[C@@]12C" ?
inactive

Check the results log: what was the call for "C/C=C(/CC[C@@H](C)[C@H]1CC[C@H]2C3=CC[C@H]4[C@H](C)[C@@H](O)CC[C@]4(C)[C@H]3CC[C@]12C)C(C)C" ?
inactive

meta.source: PubChem BioAssay (Tox21)
